Hello, the source for this data is patent US10221139B2, in case you need it.

Kindly supply the reported IC50 values for the records listed here.
Target: JMJD2A (KDM4A) (Homo sapiens, UniProt O75164)
Construct: 1-350; purchased BPS, Bioscience, US; host or cells: E. coli
Sequence (O75164 1-350): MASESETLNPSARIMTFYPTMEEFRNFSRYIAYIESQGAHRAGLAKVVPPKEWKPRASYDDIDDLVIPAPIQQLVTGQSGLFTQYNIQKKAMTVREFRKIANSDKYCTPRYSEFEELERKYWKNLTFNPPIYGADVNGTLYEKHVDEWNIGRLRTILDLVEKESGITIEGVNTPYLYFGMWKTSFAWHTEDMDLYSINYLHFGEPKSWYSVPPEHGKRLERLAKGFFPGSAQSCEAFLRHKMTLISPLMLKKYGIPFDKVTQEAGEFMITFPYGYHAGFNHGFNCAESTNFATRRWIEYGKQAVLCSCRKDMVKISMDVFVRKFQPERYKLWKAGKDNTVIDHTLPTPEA
Experiment: Histone lysine demethylase AlphaLISA assay, JMJD2A
Assay type: biochemical
Details: substrate BK9M3

# value lookup — system JMJD2A (KDM4A) (Homo sapiens, UniProt O75164), readout IC50, item CCN(CC)CCCCNCc1cc(C(=O)O)ccn1 ≥ 1000 nM

Give IC50 (JMJD2A (KDM4A) (Homo sapiens, UniProt O75164)) of the following compound: CCCCN1CCCC1CCNCc1cc(C(=O)O)ccn1 (stereo not shown) < 100 nM

State its IC50 on JMJD2A (KDM4A) (Homo sapiens, UniProt O75164): O=C(O)c1ccnc(CN[C@@H]2CCN(CCCc3ccccc3)C2)c1 100 to 1000 nM

Lab note: need IC50 with JMJD2A (KDM4A) (Homo sapiens, UniProt O75164) for entry CN(C)CCNCc1cc(C(=O)O)ccn1 , please look it up. < 100 nM

Please state recorded IC50 (tested on JMJD2A (KDM4A) (Homo sapiens, UniProt O75164)) of CC(C)=CCCC(C)CCN1CCC(NC(=O)CNCc2cc(C(=O)O)ccn2)C1 (stereo not shown) < 100 nM

Notebook: pull reported IC50 for JMJD2A (KDM4A) (Homo sapiens, UniProt O75164), entry CCN(CCN(C)C)C(=O)CNCc1cc(C(=O)O)ccn1 < 100 nM

State its IC50 on JMJD2A (KDM4A) (Homo sapiens, UniProt O75164): Cn1c(CNCc2cc(C(=O)O)ccn2)nc2ccccc21 < 100 nM

Find the measured IC50: item COc1ccc(CNCc2cc(C(=O)O)ccn2)c(OC)c1 , target or system JMJD2A (KDM4A) (Homo sapiens, UniProt O75164). ≥ 1000 nM

Recorded IC50 for O=C(O)c1ccnc(CNCCCn2ccnc2)c1 with JMJD2A (KDM4A) (Homo sapiens, UniProt O75164), please? < 100 nM

API: value(readout=IC50, system=JMJD2A (KDM4A) (Homo sapiens, UniProt O75164)) for record O=C(O)c1ccnc(CNCCCN2CCCC2)c1 100 to 1000 nM

Which IC50 is reported with JMJD2A (KDM4A) (Homo sapiens, UniProt O75164) for this entry: O=C(O)c1ccnc(CNCC(=O)N2CCCC2)c1 ? < 100 nM

What measured IC50 is associated with CN(CCCCN(Cc1ccccc1)C1CC1)C(=O)CNCc1cc(C(=O)O)ccn1 on JMJD2A (KDM4A) (Homo sapiens, UniProt O75164)? < 100 nM

Give recorded IC50 with JMJD2A (KDM4A) (Homo sapiens, UniProt O75164) for the following compound: COc1ccccc1CN1CCC(NC(=O)CNCc2cc(C(=O)O)ccn2)CC1 < 100 nM

---

Tested on: demethylation of H3K4 (H3K4me3 mark) in U2OS cells
Assay: Histone lysine demethylase immunofluorescence assay, non-transfected U2OS cells (H3K4me3 staining)
Format: cell-based
Conditions: Homo sapiens, 20 hours
parameter.measured: IC50

Can you look up the measured IC50 of CCN(CC)CCCCNCc1cc(C(=O)Oc2ccc(OC)cc2)ccn1 [drawing 227] for me? < 1000 nM

Sample CCN(CCN(C)C)C(=O)CNCc1cc(C(=O)O)ccn1 [drawing 226] — what was its IC50? 1000 to 50000 nM

Using the record for CCOC(=O)c1ccccc1OC(=O)c1ccnc(CNCCCCN(CC)CC)c1 [drawing 228] , report its IC50. < 1000 nM

Which IC50 value belongs to CCCCCCCCCCCCCCCC(=O)OCC(COC(=O)CCCCCCCCCCCCCCC)OC(=O)c1ccnc(CNCC(=O)N(CC)CCN(C)C)c1 [drawing 244] ? < 1000 nM

Query (compound): CCN(CCN(C)C)C(=O)CNCc1cc(C(=O)Oc2ccc(OC)cc2)ccn1 [drawing 234] ; field requested: IC50 < 1000 nM

So what's the measured IC50 for this one? CCCCCCCCCCCCCCCC(=O)OCC(COC(=O)c1ccnc(CNCC(=O)N(CC)CCN(C)C)c1)OC(=O)CCCCCCCCCCCCCCC (centres unmarked) [drawing 245] < 1000 nM

Please look up its IC50: CCOC(=O)c1ccccc1OC(=O)c1ccnc(CNCC(=O)N(CC)CCN(C)C)c1 [drawing 235] < 1000 nM

Name the reported IC50 value associated with the compound CCN(CCN(C)C)C(=O)CNCc1cc(C(=O)Oc2ccc(C(C)(C)C)cc2)ccn1 [drawing 237] < 1000 nM

// returns reported IC50 for input CCOC(=O)Nc1ccc(COC(=O)c2ccnc(CNCCCCN(CC)CC)c2)cc1 [drawing 231] < 1000 nM

Name the recorded IC50 for CCN(CC)CCCCNCc1cc(C(=O)OCCN(C)C)ccn1 [drawing 229] . 1000 to 50000 nM

Return reported IC50; argument: CCN(CCN(C)C)C(=O)CNCc1cc(C(=O)N2CCOC2=O)ccn1 [drawing 248] 1000 to 50000 nM

Any idea what IC50 was measured for CCN(CCN(C)C)C(=O)CNCc1cc(C(=O)Oc2c(OC(C)C)cccc2OC(C)C)ccn1 [drawing 253] ? 1000 to 50000 nM

So what does the record say about IC50 for CCN(CCN(C)C)C(=O)CNCc1cc(C(=O)OCCF)ccn1 [drawing 255] ? < 1000 nM

Could you tell me which IC50 is on file for CCN(CCN(C)C)C(=O)CNCc1cc(C(=O)OC(C)CCNC(=O)C(F)(F)F)ccn1 (centres unmarked) [drawing 239] ? < 1000 nM

Reported IC50 for CCN(CC)CCCCNCc1cc(C(=O)OCCCN(C)C)ccn1 [drawing 230] : what is it? 1000 to 50000 nM

For the compound CCN(CCN(C)C)C(=O)CNCc1cc(C(=O)OC(C)CC(C)=O)ccn1 (centres unmarked) [drawing 238] , what IC50 is on record? < 1000 nM

Look at this compound and give its reported IC50. CCN(CCN(C)C)C(=O)CNCc1cc(C(=O)OC(C)CCN(C)C(=O)C(F)(F)F)ccn1 (centres unmarked) [drawing 240] < 1000 nM
